- Target Or Test System: Nonstructural protein 3 (Zika virus, UniProt A0A024AXB9)
- Sequence (A0A024AXB9 whole entry): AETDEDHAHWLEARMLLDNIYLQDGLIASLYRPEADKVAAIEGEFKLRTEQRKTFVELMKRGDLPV
- Test Name: Functional biochemical assay to identify treatments for viral infectious disease that targets Zika NS2B-NS3 protease. Utilizing a direct enzyme activity measurement method, reading the fluorescence intensity is used to characterize the relative potency of inhibitors as IC50.
- Design: species or system PRVABC59
pIC50: −log10 of the molar value.
Observation Type: pIC50

Answered examples (5):
>>> assay_result("c1ccc2[nH]c(CC3CCN(Cc4nccs4)CC3)nc2c1")
"< 4.00"
>>> assay_result("O=C(O)CCc1cccc(NC(=O)c2cc(Cl)cc(NC(=O)OCc3ccccc3)c2)c1")
"< 4.00"
>>> assay_result("CNC(=O)[C@]1(Nc2ccc3c(c2)CNC3)C(=O)Nc2c(OC)cc(Br)cc21")
4.27
>>> assay_result("O=C(Nc1cc(Cl)cc([C@H]2Nc3ccc(-c4nn[nH]n4)cc3[C@H]3OCCC[C@@H]23)c1)OCc1ccccc1")
"< 4.00"
>>> assay_result("CNC(=O)[C@]1(Nc2ccc3c(c2)CNC3)C(=O)Nc2ccc(Cl)cc21")
"< 4.60"

Return reported pIC50 values for all items listed beneath this line.
1. NCc1cccc(NC(=O)c2cc(CO)cc(NC(=O)OCc3ccccc3)c2)c1
2. CCn1c(=O)c(N2C[C@H]3COC(C)(C)OC[C@H]3C2)nc2ccccc21
3. CC(C)(CO)NC(=O)c1cc(Cl)cc(NC(=O)c2cc(Cl)ccc2O)c1

*A*
["< 4.00", "< 4.00", "< 4.00"]

*Q* I have this molecule here, CNC(=O)c1cc(CN)cc([C@@H]2C[C@H]2c2cc(Cl)cc(NC(=O)OCc3ccccc3)c2)c1 , and I need its recorded pIC50.
*A* 5.06

* * *

Can you tell me pIC50 for the items I'm about to list?
- Target Or Test System: UniProtKB A0A024AXB9
- Test Name: Functional biochemical assay to identify treatments for viral infectious disease that targets Zika NS2B-NS3 protease. Utilizing a direct enzyme activity measurement method, reading the fluorescence intensity is used to characterize the relative potency of inhibitors as IC50.
- Design: species or system PRVABC59
pIC50: −log10 of the molar value.

Example cases with answers are listed next.
>>> assay_result("O=C1OCc2ccc(NC(=O)c3cccc4c3CNC4)cc21")
"< 4.60"
>>> assay_result("CC(=O)N(c1ccc2c(c1)CNC2)[C@]1(c2cc(Cl)cc(C3CC3)c2)CN(C)C1=O")
4.64
>>> assay_result("CNC(=O)c1cc(C#N)ccc1NS(=O)(=O)c1ccc(Oc2ccccc2Cl)cc1")
"< 4.00"
>>> assay_result("COc1cc(OC)cc([C@H]2CCN(C(=O)Nc3ccc4c(c3)CNC4)C2)c1")
"< 4.60"
>>> assay_result("O=C(Nc1cc(-c2cccnc2)ccn1)c1csc(C[C@H]2CCNC2)n1")
"< 4.60"

Provide each entry's pIC50 from the list below.
1. NC1(c2cc(C(F)(F)F)ccc2NS(=O)(=O)c2ccc(Oc3ccccc3Cl)cc2)CC1
2. N[C@@H]1CC[C@H](NC(=O)[C@@H](NC(=O)OCc2ccccc2)c2ccc(OCc3ccccc3)cc2)C1
3. N[C@H]1CCc2ncc(NS(=O)(=O)c3ccc(Oc4ccccc4Cl)cc3)cc2C1
4. Brc1ccsc1CSc1cnn[nH]1
5. CC(=O)Nc1cccc(-c2ccc(S(=O)(=O)Nc3ccc(Cl)cc3C(=O)O)cc2)c1

*A*
< 4.00
< 4.00
< 4.00
< 4.00
< 4.00

* * *

- Target Or Test System: Nonstructural protein 3 (Zika virus)
- Test Name: Functional biochemical assay to identify treatments for viral infectious disease that targets Zika NS2B-NS3 protease. Utilizing a direct enzyme activity measurement method, reading the fluorescence intensity is used to characterize the relative potency of inhibitors as IC50.
- Design: species or system PRVABC59
pIC50: −log10 of the molar value.
Observation Type: pIC50

// for each compound in input: emit pIC50
1. Cc1cccc([C@@H](NC(=O)OCc2ccccc2)C(=O)Nc2cccc(CN)c2)n1
2. C[C@H]1NCCc2c(-c3ccc4[nH]c(C(=O)O)cc4c3)cc(F)cc21
3. NC(=O)c1cccc(NC(=O)[C@@H](NC(=O)c2ccc(Oc3ccc(C(F)(F)F)cc3)cc2)c2ccc(OCc3ccccc3)cc2)c1
4. CCn1nccc1-c1cccc([C@@H](NC(=O)OCc2ccccc2)C(=O)Nc2cccc(CN)c2)c1

*A*
< 4.00
< 4.00
< 4.00
< 4.00

// each listed compound needs a value for pIC50
1. CC(C)c1nc2c(C(=O)Nc3cccc(-c4nnn[nH]4)c3)cccc2[nH]1
2. Cc1ccc2c(c1)CN(C(=O)c1ccc(C3(CN)CC3)cc1)C(C)(C)C2

*A*
["< 4.00", "< 4.00"]

* * *

- Target Or Test System: Nonstructural protein 3 (Zika virus, UniProt A0A024AXB9)
- Test Name: Functional biochemical assay to identify treatments for viral infectious disease that targets Zika NS2B-NS3 protease. Utilizing a direct enzyme activity measurement method, reading the fluorescence intensity is used to characterize the relative potency of inhibitors as IC50.
- Design: species or system PRVABC59
pIC50: −log10 of the molar value.
Answer each item with its documented pIC50.

>>> assay_result("c1ccc2c(CN3CCC[C@H](c4c[nH]c5ccccc45)C3)c[nH]c2c1")
"< 4.00"

Please give pIC50, item by item, for the list that follows.
1. N[C@H]1CC[C@@H](NC(=O)[C@@H](NC(=O)OCc2ccccc2)c2ccc(OCc3ccccc3)cc2)C1
2. CC(=O)N1CC[C@]2(C1)C(=O)Nc1cccc(C(=O)Nc3ccc4c(c3)CNC4)c12
3. Cc1ocnc1COc1cccc([C@H](NC(=O)OCc2ccccc2)C(=O)Nc2cccc(CN)c2)c1
4. O=C(NC[C@H]1CCCO1)[C@H](Nc1ccc2c(c1)CNC2)c1cc(Cl)cc2[nH]ncc12
5. O[C@@H]1CNC[C@H]1c1c[nH]c2ccccc12

*A*
1. < 4.00
2. 6.90
3. < 4.00
4. 6.95
5. < 4.00

Go through the items and report each one's pIC50.
1. CCn1ncc(-c2noc3nc(C)cc(C(=O)Nc4cccc(CN)c4)c23)c1C
2. COc1cccc(C2CCN(Cc3c[nH]c4ccccc34)CC2)c1

*A*
< 4.00
4.19

Give pIC50 for all molecules that follow.
1. COC(=O)c1cc(CN)cc([C@@H]2C[C@H]2c2cc(Cl)cc(NC(=O)OCc3ccccc3)c2)c1
2. NCc1cccc(NC(=O)[C@@H]2CCC[C@H](NC(=O)OCc3ccccc3)C2)c1
3. Nc1nc(S(=O)(=O)c2ccccc2)c(Cl)s1
4. NCc1ccc(COc2ccc(-c3ccc(N)nc3)c3c2OB(O)CC3)cc1
5. O=C1OCc2ccc(NC(=O)c3cc(Cl)cc4[nH]ncc34)cc21
6. COC(=O)c1cc(Cl)ccc1NS(=O)(=O)c1ccc(O)cc1

*A*
1. 4.50
2. < 4.00
3. < 4.00
4. < 4.00
5. 4.49
6. < 4.00

* * *

Hi there, I'd appreciate the recorded IC50 for every entry that follows.
- Target Or Test System: Nonstructural protein 3 (Zika virus)
- Test Name: Functional biochemical assay to identify treatments for viral infectious disease that targets Zika NS2B-NS3 protease. Utilizing a direct enzyme activity measurement method, reading the fluorescence intensity is used to characterize the relative potency of inhibitors as IC50.
- Design: species or system PRVABC59

>>> assay_result("OC[C@H]1CCN(c2ccnc(C(F)F)c2)C1")
"> 99.5 µM"
>>> assay_result("Cc1ncc(COc2ccc([C@@H](NC(=O)OCc3ccccc3)C(=O)Nc3cccc(CN)c3)cc2)o1")
"> 99.5 µM"
>>> assay_result("CC(C)CNC(=O)c1cc(Cl)ccc1NS(=O)(=O)c1ccc(Oc2ccccc2Cl)cc1")
"34.3 µM"

Quick one: give me IC50 for each item below, same order please.
1. NCc1cccc(N(C(=O)CNC(=O)OCc2ccccc2)c2ccc(OCc3ccccc3)cc2)c1
2. CN(C)CCC(=O)N1CCC([C@@H](NC(=O)OCc2ccccc2)C(=O)Nc2cccc(CN)c2)CC1
3. CC[C@H](Cc1nnn[nH]1)c1ccc(NC(=O)c2cc(Cl)cc3c2CCC3)cc1
4. CCn1ccnc(N2CCC(c3c[nH]c4ccccc34)CC2)c1=O
5. CCO[C@@H]1CC[C@H]1NC(=O)c1cccc2c1CC(=O)N2
6. NCc1cccc(NS(=O)(=O)c2cc(Cl)cc(NC(=O)OCc3ccccc3)c2)c1
7. NCc1cccc(NC(=O)[C@@H](NC(=O)OCc2ccccc2)c2ccc(F)c(F)c2)c1

*A*
> 99.5 µM
> 99.5 µM
> 99.5 µM
> 99.5 µM
> 25 µM
> 99.5 µM
> 99.5 µM

* * *

- Target Or Test System: Nonstructural protein 3 (Zika virus)
- Test Name: Functional biochemical assay to identify treatments for viral infectious disease that targets Zika NS2B-NS3 protease. Utilizing a direct enzyme activity measurement method, reading the fluorescence intensity is used to characterize the relative potency of inhibitors as IC50.
- Parameters: species or system PRVABC59
Observation Type: log10 of IC50 (log10 of the value in µM)
Please note: log10 values; quantity IC50; unit µM.

Worked examples, 5 compounds total:
>>> assay_result("NCc1cccc(NC(=O)C[C@@H](NC(=O)OCc2ccccc2)c2ccc(OCc3ccccc3)cc2)c1")
0.84
>>> assay_result("CCNC(=O)Nc1cc(Cl)cc(C(=O)Nc2cc(CCCN)ccc2F)c1")
0.79
>>> assay_result("NCc1cc(/C=C/C(=O)O)cc(NC(=O)c2cc(Cl)cc(NC(=O)OCc3ccccc3)c2)c1")
0.50
>>> assay_result("CNC(=O)c1cccc(C(=O)Nc2ccc3c(c2)CNC3)c1")
-0.06
>>> assay_result("NCc1cccc(NC(=O)[C@@H](NC(=O)OCc2ccccc2)c2ccc(C(F)(F)F)cc2)c1")
1.90

# per-item lookup of log10 of IC50; items listed below
1. CC(C)n1ncc2c(C(=O)Nc3ccc4c(c3)CNC4)cc(Cl)cc21
2. O=C(Nc1ccc2c(c1)CNCC2)c1cc(Cl)cc2[nH]ncc12
3. Cn1cc2c(C(=O)Nc3ccc4c(c3)CNC4)cc(Cl)cc2n1
4. Cc1cc(C(=O)Nc2cccc(CN)c2)cc(NC(=O)OCc2ccccc2)c1Cl
5. CCc1ccccc1-c1ccc([C@@H](NC(=O)OCc2ccccc2)C(=O)Nc2cccc(CN)c2)cc1

*A*
1. -0.73
2. -0.30
3. -0.80
4. 1.59
5. 0.77
